target desc: 5HT2C receptors (Homo sapiens, UniProt P28335)
Sequence (P28335 33-458): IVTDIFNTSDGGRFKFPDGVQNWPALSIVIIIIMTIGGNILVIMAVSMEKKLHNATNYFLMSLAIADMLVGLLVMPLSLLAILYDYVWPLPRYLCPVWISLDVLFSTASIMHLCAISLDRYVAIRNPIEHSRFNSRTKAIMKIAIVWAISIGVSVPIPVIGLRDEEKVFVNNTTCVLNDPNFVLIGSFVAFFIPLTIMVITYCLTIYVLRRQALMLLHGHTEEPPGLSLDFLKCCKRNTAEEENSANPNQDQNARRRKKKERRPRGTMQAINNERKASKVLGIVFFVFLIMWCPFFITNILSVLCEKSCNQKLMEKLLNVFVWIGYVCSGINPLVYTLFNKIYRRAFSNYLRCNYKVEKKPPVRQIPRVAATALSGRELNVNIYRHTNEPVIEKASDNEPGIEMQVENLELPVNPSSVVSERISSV
experimental details: Human 5-HT2C functional assay in 1321N1 cells (intracellular calcium, FLIPR)
Assay type: cell-based
Parameters: expressed in transfected cells; host or cells: 1321N1 cells
assay conditions: 5-HT2c agonist activity, maximum calcium response
Procedure: (ii) Human 5-HT2C Functional Assay in 1321N1 Cells Functional activity was determined by testing the effect of the compounds on intracellular calcium levels in 1321N1 cells stably transfected with the human 5-HT2C receptor. […] Serial compound dilutions (final concentrations 10^−10 to 10^−5 M) were added to the cells either alone or in the presence of serotonin (10^−9 M) and the maximum calcium response was determined using a FLIPR instrument (Molecular Devices). […]
Use EC50 to assign classes; range list: Low (below 8 nM), Mid (8 nM to below 20 nM), High (20 nM or more)

Worked set:
O=C1NC[C@H]2CN(Cc3ccccc3)C[C@@H]2c2ccc(F)cc21 [Example 61] | Low
O=C1NC[C@@H]2CN(Cc3cccc4ccccc34)C[C@@H]2c2ccccc21 (relative stereo) [Example 43] | High
O=C1NC[C@@H]2CNC[C@H]2c2cccc(F)c21 (single isomer, unassigned) [Example 60] | Low
O=C1NC[C@@H]2CN(Cc3ccccc3)C[C@H]2c2cc(Cl)ccc21 (relative stereo) [Example 51] | High
O=C1NC[C@@H]2CN(Cc3cc(Cl)ccc3F)C[C@H]2c2ccccc21 (relative stereo) [Example 70] | Low

Sort O=C1NC[C@@H]2CN(Cc3ccccc3)C[C@@H]2c2cccc(F)c21 (relative stereo) [Example 59] into one of the categories. High

Would you mind sorting O=C1NC[C@@H]2CNC[C@H]2c2ccc(F)cc21 (relative stereo) [Example 57] into the appropriate category? Low

* * *

target desc: 5HT2C receptors (Homo sapiens, UniProt P28335)
experimental details: Human 5-HT2C functional high throughput screening assay in CHO-K1 cells (calcium flux)
Type: cell-based
Parameters: expressed in transfected cells; host or cells: CHO-K1 cells
assay conditions: EC50, 5-HT2C agonist activity; CHO-K1 cells; calcium flux
pEC50: −log10 of the molar value.
Where pEC50 equals or exceeds 8, the correct label is yes; where it does not, the label is no.

O=C1NC[C@@H]2CNC[C@H]2c2cccc(F)c21 (single isomer, unassigned) [Example 62] | yes
Brc1ccc2c(c1)[C@H]1CNC[C@@H]1CCO2 (relative stereo) | yes
Fc1cccc2c1[C@H]1CNC[C@@H]1CCO2 (relative stereo) | no

Dear colleague, could you confirm whether O=S(=O)(c1cccc(F)c1)N1Cc2cccnc2[C@@H]2CNC[C@H]2C1 (relative stereo) has pEC50 at or above 8? no

Dear colleague, could you confirm whether CC1(C)CCC(Oc2ccc3c(c2)C(=O)NC[C@@H]2CNC[C@@H]32)CC1 (relative stereo) has pEC50 at or above 8? no

Item COc1ccc2c(c1)[C@H]1CNC[C@@H]1CCC2 (relative stereo) with pEC50 of 8 or above? no
